Biological target: furin, P09958;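 further: purified furin at 1:10 enzyme:substrate in 50 mM HEPES pH 7.5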
Sequence (P09958 whole entry): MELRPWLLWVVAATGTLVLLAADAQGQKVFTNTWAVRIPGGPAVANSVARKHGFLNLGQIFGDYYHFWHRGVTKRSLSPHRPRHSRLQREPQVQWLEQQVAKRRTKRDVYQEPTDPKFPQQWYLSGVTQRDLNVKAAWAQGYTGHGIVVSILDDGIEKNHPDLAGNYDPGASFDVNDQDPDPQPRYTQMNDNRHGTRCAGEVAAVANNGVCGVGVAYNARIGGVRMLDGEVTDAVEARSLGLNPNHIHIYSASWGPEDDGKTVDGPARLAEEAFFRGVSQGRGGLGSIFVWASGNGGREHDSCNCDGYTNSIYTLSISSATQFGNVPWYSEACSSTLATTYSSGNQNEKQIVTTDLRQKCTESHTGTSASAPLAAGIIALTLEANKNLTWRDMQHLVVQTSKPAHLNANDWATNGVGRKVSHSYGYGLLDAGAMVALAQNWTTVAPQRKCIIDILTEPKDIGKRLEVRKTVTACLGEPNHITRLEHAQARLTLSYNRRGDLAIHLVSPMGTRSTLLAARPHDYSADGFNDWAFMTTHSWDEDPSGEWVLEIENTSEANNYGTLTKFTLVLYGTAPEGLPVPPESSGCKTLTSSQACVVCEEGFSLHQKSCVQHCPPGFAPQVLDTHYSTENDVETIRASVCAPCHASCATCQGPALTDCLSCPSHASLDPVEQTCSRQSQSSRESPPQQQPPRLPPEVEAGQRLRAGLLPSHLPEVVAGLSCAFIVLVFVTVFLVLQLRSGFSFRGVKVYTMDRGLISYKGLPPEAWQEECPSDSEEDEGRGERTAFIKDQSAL
Assay: furin cleavage Z-score vs untreated control; higher = more cleavage, active = 3.5 or more, inactive = 1 or less, 8 variable residues between constant flanks
Settings: 15 min
The other results are listed elsewhere or left out. The true hit rate is not given.
Outcome codes: Yes (active), No (inactive)

| sequenceContent | classAssignment |
| --- | --- |
| CAHSERKKRRAGNASASA [FS-249] | Yes |
| CADYMEECSQAGNASASA [HC1809] | No |
| CAERSREMRAAGNASASA [FS-1120] | No |
| CARQKRDANSAGNASASA [FS-2506] | Yes |
| CAQRQRAKRNAGNASASA [FS-1252] | Yes |
| CAKCPCQVPSAGNASASA [HC1216] | No |
| CAERSRVCRCAGNASASA [FS-123] | No |
| CAESTRTRRAAGNASASA [FS-1522] | Yes |
| CAFCCRKKRRAGNASASA [FS-586] | Yes |
| CAVFTGLTHIAGNASASA [HC941] | No |
| CAPGDPDLSDAGNASASA [HC1358] | No |
| CALDPQARVAAGNASASA [HC1493] | No |
| CARQKKADEPAGNASASA [FS-3033] | No |
| CAPSRRTRRLAGNASASA [FS-1555] | Yes |
